Source: ChEMBL document CHEMBL3885861

# Species on record: Rattus norvegicus
# TEST_PROTOCOL: Open TG-GATES - Regimen: Daily Repeat
# Assay type: toxicity, organism-based, Sprague-Dawley
# Parameters: regimen Daily Repeat, gender Male, age 6 weeks
# ASSAY_CONDITIONS: in vivo, po, 1000 mg/kg, […], tissue Blood, route gavage, dose level High, time 7 day
METRIC_NAME: APTT (s)

CCOC(=O)CCC(=O)O[C@H]1[C@H](O[C@@H]2[C@@H](C)[C@H](O[C@H]3C[C@@](C)(OC)[C@@H](O)[C@H](C)O3)[C@@H](C)C(=O)O[C@H](CC)[C@@](C)(O)[C@H](O)[C@@H](C)C(=O)[C@H](C)C[C@@]2(C)O)O[C@H](C)C[C@@H]1N(C)C [ERYTHROMYCIN ETHYLSUCCINATE]	21.4
COc1ccc2[nH]c([S+]([O-])Cc3ncc(C)c(OC)c3C)nc2c1 (stereo not given) [OMEPRAZOLE]	21.9
CCOc1ccc(NC(=O)CC(C)O)cc1 (stereo not given) [BUCETIN]	20.3
COC1=CC(=O)C[C@@H](C)[C@]12Oc1c(Cl)c(OC)cc(OC)c1C2=O [GRISEOFULVIN]	21
NC(N)=Nc1nc(CSCCC(N)=NS(N)(=O)=O)cs1 [FAMOTIDINE]	21.5
